Let's look at some molecules and their measured melting point.

molecule	melting point
CCOc1ccc2c(C#N)c(-c3ccc(N(C)S(=O)(=O)CC)cc3)n(C)c2c1 [Compound 692]	175 to 176 °C
CC(C)OC(=O)Nc1ccc(-c2c(C#N)c3ccc(OC(F)F)cc3n2C2CCC2)cc1 [Compound 822]	144 to 145 °C
CCn1c(-c2ccc(NC(=O)c3ccc(F)cc3)cc2)c(C#N)c2ccc(OC(C)C)cc21 [Compound 764]	213.5 to 231.7 °C
CCCn1c(-c2ccc(NC(=O)NCC)cc2)c(C#N)c2ccc(OC)cc21 [Compound 626]	193 to 194 °C
CCn1c(C#Cc2cccc(NC(=O)COC)c2)c(C#N)c2ccc(OC)cc21 [Compound 219]	145 to 149 °C
CCn1c(-c2ccc(NC(=O)COC)cc2)c(C#N)c2ccc(OC(C)C)cc21	169 to 173 °C
CCn1c(-c2ccc(S(N)(=O)=O)cc2)c(C#N)c2cc(Cl)ccc21 [Compound 408]	231 to 235 °C
CCn1c(-c2ccc3c(c2)CCN3C(=O)NC(C)C)c(C#N)c2ccc(OC)cc21 [Compound 681]	192 to 197 °C
CCn1c(C#Cc2ccc(N(C)C)cc2)c(C#N)c2ccc(C(F)(F)F)cc21 [Compound 201]	147 to 150 °C
CCCCNC(=O)Nc1ccc(-c2c(C#N)c3ccc(OC(F)F)cc3n2CC2CC2)cc1 [Compound 742]	171 to 173 °C
CCn1c(-c2ccc3c(c2)OCO3)c(C#N)c2ccc(OC)cc21 [Compound 22]	146 to 149 °C
CCn1c(NC(=O)C2CC2)c(C#N)c2ccc(OC)cc21 [Compound 216]	261 °C
CCn1c(C#Cc2cccc(NC(=O)C3CC3)c2)c(C#N)c2ccc(OC)cc21 [Compound 211]	186 to 191 °C
CCn1c(-c2ccc(NS(=O)(=O)CCCCl)cc2)c(C#N)c2ccc(OCCF)cc21 [Compound 551]	187 to 190 °C
CCn1c(C#Cc2ccc(N)cc2)c(C#N)c2ccc(C(N)=O)cc21 [Compound 96]	243 to 250 °C
CCCNC(=O)N1CCc2cc(-c3c(C#N)c4ccc(OC)cc4n3CC)ccc21 [Compound 680]	163 to 168 °C
CCCn1c(-c2ccc(NS(=O)(=O)CCCCl)cc2)c(C#N)c2ccc(OC)cc21 [Compound 850]	179 to 180 °C
COc1ccc(-n2cc(C(C)=O)c3ccc(OC)cc32)cc1 [Compound 48]	138 to 142 °C
CCn1c(-c2ccc(NC(=O)OC(C)C)cc2)c(C#N)c2cc(OC)ccc21 [Compound 795]	183 to 185 °C
CCCn1c(-c2ccc(NS(=O)(=O)C3CC3)cc2)c(C#N)c2ccc(OC)cc21 [Compound 851]	186 to 187 °C
CCOC(=O)Nc1ccc(-c2c(C#N)c3ccc(OC(F)F)cc3n2CC2CC2)cc1 [Compound 735]	123 to 125 °C
CCCCn1c(-c2ccc(NC(=O)NCCC)cc2)c(C#N)c2ccc(OC)cc21 [Compound 749]	176 to 178 °C
CCn1c(-c2ccc(NS(C)(=O)=O)cc2)c(C#N)c2ccc(OCCN3CCSCC3)cc21 [Compound 480]	207 to 208 °C
CCNC(=O)N1CCc2cc(-c3c(C#N)c4ccc(OC)cc4n3CC)ccc21 [Compound 679]	212 to 220 °C
